src = PubChem BioAssay AID376

Each item that follows carries a reported hERG blockade.
measuredTarget: Voltage-gated inwardly rectifying potassium channel KCNH2 (Homo sapiens)
assayInfo: KCNH2 potassium channel function modulators, cell-based (AID 376);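 also: 0% = buffer alone and 100% = reference blocker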
protocolConditions: hERG-expressing cells, channel activity single-concentration screen; concentration not given here
Hit rate of the full screen: of about 2,000 compounds, about 250 (12%) were called active. This excerpt belongs to a sample that is enriched for actives.
Answer in %, number only, no unit symbol.

Illustrative cases are given below, each with its answer.
CN(CC(=O)O)Cc1c[nH]c2ccccc12 :: -21
CC(=NO)c1ccc2cc(Br)c3ccccc3c2c1 :: 61.6
COC(=O)C1C(OS(=O)(=O)O)CCC2CN3CCc4c([nH]c5ccccc45)C3CC21 (centres undefined) :: -1.73
c1cc(CNCCN2CCNCC2)ccn1 :: -17.5
NC(N)=NNC(=O)C(=O)O :: -3.63

Which hERG blockade reading was recorded for the compound O=C(O)C(Cc1c[nH]c2ccccc12)N1C(=O)c2ccccc2C1=O (centres undefined) ?
-13.6

Which hERG blockade reading was recorded for the compound `Clc1ccccc1C(Nc1cnccn1)Nc1cnccn1` ?
21.5

Which hERG blockade reading was recorded for the compound CN1CCCCC1CCN1CCCCC1 (centres undefined) ?
1.07

Which hERG blockade reading was recorded for the compound COc1ccc2c3c([nH]c2c1)C1CC2C(CC(O)C(OC)C2C(=O)O)CN1CC3 (centres undefined) ?
5.28
